Hey, just so you know, these numbers are from patent US20220347175A1.

System: human Nav1.5 (Homo sapiens)
Construct: expressed in transfected cells; host or cells: CHO-K1 (T-REx System, ThermoFisher Scientific)
Sequence (Q14524 1-2015 isoform Q14524-2): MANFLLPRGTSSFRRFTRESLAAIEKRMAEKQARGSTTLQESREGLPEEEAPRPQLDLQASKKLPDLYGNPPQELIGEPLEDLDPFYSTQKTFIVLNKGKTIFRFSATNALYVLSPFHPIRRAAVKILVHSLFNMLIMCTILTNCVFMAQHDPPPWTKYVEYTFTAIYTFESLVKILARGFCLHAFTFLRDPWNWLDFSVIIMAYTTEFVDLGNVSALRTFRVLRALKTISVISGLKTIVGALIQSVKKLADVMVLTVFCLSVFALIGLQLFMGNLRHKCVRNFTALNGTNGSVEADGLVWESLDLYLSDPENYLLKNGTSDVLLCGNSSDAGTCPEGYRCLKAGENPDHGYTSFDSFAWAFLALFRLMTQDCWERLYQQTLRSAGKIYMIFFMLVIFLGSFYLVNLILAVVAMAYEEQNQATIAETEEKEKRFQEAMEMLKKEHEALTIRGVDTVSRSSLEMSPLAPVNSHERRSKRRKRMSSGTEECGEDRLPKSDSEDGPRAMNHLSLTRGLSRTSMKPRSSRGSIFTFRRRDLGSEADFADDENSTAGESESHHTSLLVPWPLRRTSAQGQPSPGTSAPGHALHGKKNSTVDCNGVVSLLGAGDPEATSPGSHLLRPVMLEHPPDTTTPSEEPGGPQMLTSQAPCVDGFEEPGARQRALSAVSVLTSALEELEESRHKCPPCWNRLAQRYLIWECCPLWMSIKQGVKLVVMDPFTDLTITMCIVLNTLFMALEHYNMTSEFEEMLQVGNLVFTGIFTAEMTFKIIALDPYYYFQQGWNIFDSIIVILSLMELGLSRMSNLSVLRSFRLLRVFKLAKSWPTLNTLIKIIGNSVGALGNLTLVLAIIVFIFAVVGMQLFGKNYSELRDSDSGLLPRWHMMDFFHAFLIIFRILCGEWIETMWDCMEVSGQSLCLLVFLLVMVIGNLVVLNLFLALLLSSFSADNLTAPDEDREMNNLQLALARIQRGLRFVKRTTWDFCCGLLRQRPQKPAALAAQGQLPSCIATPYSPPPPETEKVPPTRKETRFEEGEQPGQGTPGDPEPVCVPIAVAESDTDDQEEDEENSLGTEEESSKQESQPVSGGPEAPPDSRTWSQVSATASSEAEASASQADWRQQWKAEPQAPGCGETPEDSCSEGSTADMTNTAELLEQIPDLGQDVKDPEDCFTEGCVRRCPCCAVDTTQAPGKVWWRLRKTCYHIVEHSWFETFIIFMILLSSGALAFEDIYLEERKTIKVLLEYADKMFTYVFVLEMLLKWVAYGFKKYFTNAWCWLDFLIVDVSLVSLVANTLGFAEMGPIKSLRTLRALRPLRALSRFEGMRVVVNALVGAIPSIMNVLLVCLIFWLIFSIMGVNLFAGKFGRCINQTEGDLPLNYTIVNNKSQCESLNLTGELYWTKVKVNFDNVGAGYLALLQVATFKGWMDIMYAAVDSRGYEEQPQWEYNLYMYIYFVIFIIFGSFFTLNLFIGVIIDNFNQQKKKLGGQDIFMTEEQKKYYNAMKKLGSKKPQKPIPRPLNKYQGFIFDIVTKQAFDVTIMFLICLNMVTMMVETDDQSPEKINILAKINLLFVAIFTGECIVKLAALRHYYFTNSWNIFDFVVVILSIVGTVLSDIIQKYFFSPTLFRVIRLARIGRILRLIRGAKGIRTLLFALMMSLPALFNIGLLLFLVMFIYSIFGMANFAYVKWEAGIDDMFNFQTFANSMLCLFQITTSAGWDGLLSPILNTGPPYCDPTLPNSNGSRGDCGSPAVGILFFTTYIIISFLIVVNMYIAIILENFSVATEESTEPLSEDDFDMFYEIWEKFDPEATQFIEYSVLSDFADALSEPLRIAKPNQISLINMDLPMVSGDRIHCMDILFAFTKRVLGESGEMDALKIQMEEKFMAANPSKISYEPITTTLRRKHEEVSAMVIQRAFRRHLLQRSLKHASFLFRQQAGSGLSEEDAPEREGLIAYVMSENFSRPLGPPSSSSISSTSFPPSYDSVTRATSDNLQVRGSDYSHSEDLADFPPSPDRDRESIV
Test Name: Amplification of Nav1.5-derived voltage-dependent sodium current (Nav1.5 current), cell line stably expressing human Nav1.5, automated patch clamp
Type: cell-based
Condition Context: 10 μmol/L compound; change of the area under the curve of Nav1.5 current (Test Result 1)
Label rule, in plain words: Nav1.5 current amplification rate (%) of 20% and up is true (1), under 20% is false (0).

Decide: is the reported value of Nav1.5 current amplification rate (%) for COc1cncc(C2=CCN(C(=O)Cn3nc(C4=CCC(C)CC4)ccc3=O)CC2)c1 (centres unmarked) equal to or greater than 20%?
false (0)

Moving on to CC1CCN(c2ccc(=O)n(CC(=O)Nc3cccc(-c4ncco4)c3)n2)CC1
false (0)

Moving on to COc1cc(=O)n(CC(=O)N2CCN(c3cncc(F)c3)CC2)nc1C1=CCC(C)(C)CC1
true (1)

Moving on to O=C(Cn1nc(-c2ccc(C(F)(F)F)nc2)ccc1=O)Nc1ccc2ocnc2c1
false (0)

Moving on to COC1CN(c2cccc3c2CCN3C(=O)Cn2nc(C3=CCC(C)(C)CC3)ccc2=O)C1
true (1)

Moving on to COc1cc(=O)n(CC(=O)Nc2ccc3ocnc3c2)nc1C1=CCC(C)(C)CC1
true (1)

Moving on to Cc1nc2cc(NC(=O)Cn3nc(N4CCC(C)CC4)ccc3=O)ccc2o1
false (0)

Moving on to O=C(Cn1nc(C2=CCC(C(F)(F)F)CC2)ccc1=O)N1CCN(c2cncc(F)c2)CC1 (racemic)
true (1)

====

System: human Nav1.1 (Homo sapiens, UniProt P35498)
Construct: host or cells: HEK293
Test Name: Amplification of Nav1.1-derived voltage-dependent sodium current (Nav1.1 current), cell line stably expressing human Nav1.1, automated patch clamp
Assay type: cell-based
Condition Context: concentration of each compound 1 μmol/L (Test Result 6)
Label rule, in plain words: Nav1.1 current amplification rate (%) of 50% and up is 1.0, under 50% is 0.0.

Decide: is the reported value of Nav1.1 current amplification rate (%) for CC1CC=C(c2ccc(=O)n(CC(=O)N3CC=C(c4ccncc4)CC3)n2)CC1 (stereo not shown) equal to or greater than 50%?
1.0

Moving on to COC1CN(Cc2cccc3c2CCN3C(=O)Cn2nc(C3=CCC(C)CC3)ccc2=O)C1 (racemic)
1.0

Moving on to Cc1cc2ccc(NC(=O)Cn3nc(C4=CCC(C)CC4)ccc3=O)cn2n1 (racemic)
0.0

Moving on to CC1CC=C(c2ccc(=O)n(CC(=O)N3CCCN(c4cccnc4)CC3)n2)CC1 (racemic)
0.0

Moving on to Cc1ncc(-c2cncc(NC(=O)Cn3nc(C4=CCC(C)CC4)ccc3=O)c2)o1 (racemic)
1.0

Moving on to CC1CC=C(c2ccc(=O)n(CC(=O)N3CCc4c3ccc(F)c4-c3ccnnc3)n2)CC1 (racemic)
1.0

====

For each entry below, report its Nav1.1 current amplification rate (%) value.
System: human Nav1.1 (Homo sapiens)
Construct: host or cells: HEK293
Test Name: Amplification of Nav1.1-derived voltage-dependent sodium current (Nav1.1 current), cell line stably expressing human Nav1.1, automated patch clamp
Type: cell-based
Condition Context: 10 μmol/L compound (Test Result 5)

Recorded Nav1.1 current amplification rate (%) for N#Cc1ccc(NC(=O)Cn2nc(N3CCC4(CC3)CC4)ccc2=O)cc1 , please?
212%

Moving on to CC1C=C(c2ccc(=O)n(CC(=O)Nc3ccc(C#N)cc3)n2)CC(C)O1 (centres unmarked)
2%

Moving on to CC1CC=C(c2ccc(=O)n(CC(=O)Nc3ccc(-c4cnn(C)c4)nc3)n2)CC1 (racemic)
173%

Moving on to CC1CCC(c2ccc(=O)n(CC(=O)Nc3ccc(C#N)cc3)n2)CC1 (centres unmarked) [Example 43]
174%

Moving on to CC1CCCN(c2ccc(=O)n(CC(=O)Nc3ccc(C#N)cc3)n2)C1 (centres unmarked)
76%

Moving on to CC1CC=C(c2ccc(=O)n(CC(=O)Nc3ccc(CO)nc3)n2)CC1 (racemic)
44%

Moving on to CC1(C)CCN(c2ccc(=O)n(CC(=O)Nc3ccc(C#N)cc3)n2)C1
130%

Moving on to N#Cc1ccc(NC(=O)Cn2nc(N3CCC4(CCC4)CC3)ccc2=O)cc1
364%

Moving on to N#Cc1ccc(NC(=O)Cn2nc(N3CCCC4(CC4)C3)ccc2=O)cc1
152%

Moving on to N#Cc1ccc(NC(=O)Cn2nc(N3CCC4(CCCO4)CC3)ccc2=O)cc1
20%

Moving on to N#Cc1ccc(NC(=O)Cn2nc(N3CCCC4(CCC4)C3)ccc2=O)cc1
220%

Moving on to N#Cc1ccc(NC(=O)Cn2nc(N3CCCCCCC3)ccc2=O)cc1
241%

Moving on to N#Cc1ccc(NC(=O)Cn2nc(N3CCC4(CCCCC4)C3)ccc2=O)cc1
220%

Moving on to N#Cc1ccc(NC(=O)Cn2nc(C3CCCCC3)ccc2=O)cc1
20%

Moving on to CC1CC=C(c2ccc(=O)n(CC(=O)NC3CCN(c4ccccc4)CC3)n2)CC1 (racemic)
18%

Moving on to N#Cc1ccc(NC(=O)Cn2nc(N3CCC4(CC3)CC(F)(F)C4)ccc2=O)cc1
60%

Moving on to CC1(C)CCC=C(c2ccc(=O)n(CC(=O)Nc3ccc(C#N)cc3)n2)C1
202%

Moving on to N#Cc1ccc(NC(=O)Cn2nc(N3CCC(F)(F)CC3)ccc2=O)cc1
6%

Moving on to CC1CC=C(c2ccc(=O)n(CC(=O)NC3CN(c4ccccc4)C3)n2)CC1 (racemic)
52%

Moving on to CC1CC=C(c2ccc(=O)n(CC(=O)Nc3ccnc(CO)c3)n2)CC1 (racemic)
35%

Moving on to CC1CCC(c2ccc(=O)n(CC(=O)Nc3ccc(C#N)cc3)n2)CC1 (centres unmarked) [Example 44]
59%

Moving on to CC1CCN(c2nn(CC(=O)Nc3ccc(C#N)cc3)c(=O)c3c2CCCC3)CC1
312%

Moving on to N#Cc1ccc(NC(=O)Cn2nc(N3CCCCCC3)ccc2=O)cc1
205%

Moving on to CC1CC=C(c2ccc(=O)n(CC(=O)N3CCN(Cc4cccnc4)CC3)n2)CC1 (racemic)
19%

Moving on to CC1CC=C(c2ccc(=O)n(CC(=O)N3CCC(c4cccnc4)CC3)n2)CC1 (racemic)
124%

Moving on to CC1CC(C)CN(c2ccc(=O)n(CC(=O)Nc3ccc(C#N)cc3)n2)C1 (centres unmarked) [Example 14]
9%

Moving on to N#Cc1ccc(NC(=O)Cn2nc(N3CCC4(CC3)COC4)ccc2=O)cc1
5%

Moving on to CC1CC(C)CN(c2ccc(=O)n(CC(=O)Nc3ccc(C#N)cc3)n2)C1 (centres unmarked) [Example 15]
10%

Moving on to N#Cc1ccc(NC(=O)Cn2nc(N3CCCC3)ccc2=O)cc1
3%

Moving on to CCC1(C)CCN(c2ccc(=O)n(CC(=O)Nc3ccc(C#N)cc3)n2)CC1
158%

Moving on to CC(C)(C)C1CCN(c2ccc(=O)n(CC(=O)Nc3ccc(C#N)cc3)n2)CC1
35%

Moving on to CC1CC=C(c2ccc(=O)n(CC(=O)N3CCC(Cc4ccccc4)C3)n2)CC1 (racemic)
53%

Moving on to CC1(C)CCCC(c2ccc(=O)n(CC(=O)Nc3ccc(C#N)cc3)n2)C1 (centres unmarked)
85%

Moving on to N#Cc1ccc(NC(=O)Cn2nc(C3=CCCCO3)ccc2=O)cc1
33%

Moving on to CC1CC=C(c2ccc(=O)n(CC(=O)N3CCC(Oc4ccccc4)CC3)n2)CC1 (racemic)
50%
